assay: Cytotoxicity against human K562 cells assessed as cell viability at 1.0 uM after 48 hrs by MTT assay (reference value: >99%); type: cell-based; conditions: read-out: Activity
Below is a list of entries, each paired with its recorded viability at 48 h, 1 µM value.

Would you please look over these solved cases?
* COc1cc2c(cc1OC)CN(CCc1ccc(Nc3nc(-c4ccccc4OC)nc4ccccc34)cc1)CC2 | > 99%
* COc1cc2c(cc1OC)CN(CCc1ccc(Nc3nc(-c4ccccc4)nc4cc(OC)c(OC)cc34)cc1)CC2 | > 99%
* COc1cc2c(cc1OC)CN(CCc1ccc(Nc3nc(-c4cccnc4)nc4ccccc34)cc1)CC2 | > 99%

Ask | What value of measured viability at 48 h, 1 µM is listed for COc1cc2c(cc1OC)CN(CCc1ccc(Nc3nc(-c4cccc([N+](=O)[O-])c4)nc4ccccc34)cc1)CC2 ?
Reply | > 99%

Ask | And the next one, COc1cc2c(cc1OC)CN(CCc1ccc(Nc3nc(-c4ccc(Cl)cc4)nc4ccccc34)cc1)CC2 ?
Reply | > 99%

Ask | And the next one, COc1cc2c(cc1OC)CN(CCc1ccc(Nc3nc(-c4ccc(F)cc4)nc4ccccc34)cc1)CC2 ?
Reply | > 99%
